# PROTOCOL DESCRIPTION: LNP size and polydispersity index (PDI) by dynamic light scattering
# Assay type: physicochemical
# MEASUREMENT SETUP: LNP with cirRNA (SEQ ID NO: 1); in nm (unit assumed)
Provide the recorded Size for the entries that follow.
One number for each entry.

// below: answered compounds
CCCCCCCCCC(=O)OCCCCCCCCN(CCCCCCCCOC(=O)CCCCCCCCC)CCOC(=O)NCc1ncc[nH]1 : 98.65
CCCCC/C=C\C/C=C\CCCCCCCCN(CCCCCC(=O)OCC(CCCCCCCC)CCCCCCCCCC)CCOC(=O)NCCN(C)C (centres unmarked) : 91.13
CCCCCCCOC(=O)CCCCCCCCCN(CCCCCCCCCC(=O)OCCCCCCC)CCOC(=O)NCCN(C)C : 143.8
CCCCC/C=C\C/C=C\CCCCCCCCN(CCCCCCCC(=O)OC(CCCCCCCC)CCCCCCCC)CCOC(=O)NCCN1CCCC1 : 93.54
CCCCC/C=C\C/C=C\CCCCCCCCN(CCCCCCCC/C=C\C/C=C\CCCCC)CCOC(=O)CCCN(C)C [Lipid A, reference compound] : 145.2

I'm hoping you can list Size for every compound here, please.
1. CCCCCCCCCC(=O)OCCCCCCCN(CCCCCCCCOC(=O)C(CCCCCC)CCCCCCCC)CCCOC(=O)NCCN1CCN(C)CC1 (centres unmarked)
2. CCCCCCCCC(CCCCCCCC)OC(=O)CCCCCCCN(CCCCCCCCOC(=O)C(CCCCCC)CCCCCCCC)CCCOC(=O)NCCN1CCCCC1 (centres unmarked)
3. CCCCC/C=C\C/C=C\CCCCCCCCN(CCCCCCCC(=O)OC(CCCCCCCC)CCCCCCCC)CCOC(=O)NCCN1CCCCC1

Result block:
1: 88.25; 2: 99.16; 3: 71.42

###

Provide the recorded Size for the entries that follow.
# PROTOCOL DESCRIPTION: LNP size and polydispersity index (PDI) by dynamic light scattering
# Format: physicochemical
# MEASUREMENT SETUP: LNP with mRNA (SEQ ID NO: 2); in nm (unit assumed)
# Description: Ionizable lipid, DSPC, Cholesterol and DMG-PEG 2000 were mixed at a molar ratio of 50:10:38.5:1.5 in absolute ethanol. Circular RNA and linear mRNA payloads were suspended in 25 mM Acetate Buffer (pH 4.5). […] The LNP size and polydispersity index (PDI), determined by dynamic light scattering (DLS), and zeta potential were measured by a Zetasizer machine (Malvern). […]

// below: answered compounds
CCCCCCCCC(CCCCCC)C(=O)OCCCCCCCCN(CCCCCCCCOC(=O)C(CCCCCC)CCCCCCCC)CCCOC(=O)NCCN(C)C (stereo not shown) : 88.86
CCCCC/C=C\C/C=C\CCCCCCCCN(CCCCCCCC(=O)OC(CCCCCCCC)CCCCCCCC)CCCOC(=O)NCCCn1ccnc1 : 88.07
CCCCCCCCC(CCCCCC)C(=O)OCCCCCCCCN(CCCCCCCCOC(=O)C(CCCCCC)CCCCCCCC)CCCOC(=O)NCCN1CCCCC1 (stereo not shown) : 88.83

Query block: Would you mind telling me what Size value was observed for CCCCCCCCCCC(CCCCCCCC)COC(=O)CCCCCN(CCCCCC(=O)OCC(CCCCCCCC)CCCCCCCCCC)CCOC(=O)NCCN1CCCCC1 (stereo not shown) ?
Result block: 88.09
